Biological target: CYP2C19 (Homo sapiens, UniProt P33261)
Sequence (P33261 whole entry): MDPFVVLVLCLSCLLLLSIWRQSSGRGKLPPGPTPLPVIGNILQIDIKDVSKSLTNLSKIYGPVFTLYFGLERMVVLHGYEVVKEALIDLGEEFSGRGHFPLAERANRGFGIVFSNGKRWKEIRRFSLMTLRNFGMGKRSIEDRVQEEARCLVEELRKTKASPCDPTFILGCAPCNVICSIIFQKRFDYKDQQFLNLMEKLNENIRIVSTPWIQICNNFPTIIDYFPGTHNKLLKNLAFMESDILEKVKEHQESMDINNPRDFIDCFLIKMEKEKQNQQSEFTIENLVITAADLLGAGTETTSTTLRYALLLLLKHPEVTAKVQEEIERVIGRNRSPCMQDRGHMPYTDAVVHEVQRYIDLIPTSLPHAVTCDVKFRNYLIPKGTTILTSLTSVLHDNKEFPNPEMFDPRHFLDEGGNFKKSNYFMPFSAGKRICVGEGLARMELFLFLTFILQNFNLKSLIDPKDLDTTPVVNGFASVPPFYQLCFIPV
Test: CYP2C19 activity in upcyte hepatocytes after treatment (probe substrate cocktail)
Format: cell-based
Parameters: host or cells: upcyte hepatocytes 653-03 and 653-03 #138 (653-03 2D6)
Conditions: human, probe S-mephenytoin 100 µM, 5 µM
measurement label: inhibition at 72 h, 5 µM

>>> df
                                   molecule  observed
0  CC/C(=C(\c1ccc(O)cc1)c1ccc(OCCN)cc1)c1ccccc1 [Norendox, N-didesmethyl-4-hydroxytamoxifen]     ≤ 70%

---

Test system: CYP1A2
Test: CYP1A2 activity in upcyte hepatocytes after treatment (probe substrate cocktail)
Details: human, EC50 of induction of CYP1A2 activity, 50 pM to 5 µM
measurement label: EC50 at 72 h

>>> print(df.to_string())
                                   compound  measurement_label   observed
0  CCC(=C(c1ccccc1)c1ccc(O)cc1)c1ccccc1 [(E)-Met E, 4-[1,2-diphenylbut-1-en-1-yl]phenol]       EC50 at 72 h  > 5000 nM
1   CCC(=C(c1ccc(O)cc1)c1ccc(O)cc1)c1ccccc1       EC50 at 72 h   > 400 nM

From: paper PMC5866846
